- TESTED_ON: T1, CLR-RAMP1 heterodimer with the L24A,L34A CLR double mutant, Q16602
- T1 chain 1: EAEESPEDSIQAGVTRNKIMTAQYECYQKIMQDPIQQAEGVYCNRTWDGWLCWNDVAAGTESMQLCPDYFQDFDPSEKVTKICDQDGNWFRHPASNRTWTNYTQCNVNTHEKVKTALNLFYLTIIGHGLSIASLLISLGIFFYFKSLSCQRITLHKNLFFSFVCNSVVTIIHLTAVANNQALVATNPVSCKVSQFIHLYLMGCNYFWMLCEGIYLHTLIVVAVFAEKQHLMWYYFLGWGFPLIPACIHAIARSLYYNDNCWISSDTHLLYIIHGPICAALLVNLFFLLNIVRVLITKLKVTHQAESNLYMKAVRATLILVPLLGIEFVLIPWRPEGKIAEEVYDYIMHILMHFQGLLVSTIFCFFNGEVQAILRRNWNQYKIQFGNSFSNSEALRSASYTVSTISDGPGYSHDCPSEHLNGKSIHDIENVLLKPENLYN
- T1 chain 2: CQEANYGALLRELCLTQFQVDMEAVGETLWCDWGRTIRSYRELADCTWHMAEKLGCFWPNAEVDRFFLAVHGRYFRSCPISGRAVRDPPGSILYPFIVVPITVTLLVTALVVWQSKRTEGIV
- EXPERIMENTAL_PROTOCOL: radioligand binding; competition: increasing unlabeled peptide against specific [125I-Tyr]CGRP(8–37) binding on crude membranes of transiently transfected HEK293T-RAMP1 cells, same buffer as the saturation binding; Ki from IC50 by the method of Cheng and Prusoff
MEASURED_PROPERTY: Ki

Problem: Hello, please tell me recorded Ki for this one: ACDTATCVTHRLAGLLSRS (modifications not checked) [CGRP(1–19)]
Solution: > 10 µM
